So I've got a bunch of binders here, and I need their pKd values.
- tgt: T1, EsCas13d, nuclease-dead (Eubacterium siraeum, UniProt B0MS50, R295A;H300A;R849A;H854A)
- T1 sequence: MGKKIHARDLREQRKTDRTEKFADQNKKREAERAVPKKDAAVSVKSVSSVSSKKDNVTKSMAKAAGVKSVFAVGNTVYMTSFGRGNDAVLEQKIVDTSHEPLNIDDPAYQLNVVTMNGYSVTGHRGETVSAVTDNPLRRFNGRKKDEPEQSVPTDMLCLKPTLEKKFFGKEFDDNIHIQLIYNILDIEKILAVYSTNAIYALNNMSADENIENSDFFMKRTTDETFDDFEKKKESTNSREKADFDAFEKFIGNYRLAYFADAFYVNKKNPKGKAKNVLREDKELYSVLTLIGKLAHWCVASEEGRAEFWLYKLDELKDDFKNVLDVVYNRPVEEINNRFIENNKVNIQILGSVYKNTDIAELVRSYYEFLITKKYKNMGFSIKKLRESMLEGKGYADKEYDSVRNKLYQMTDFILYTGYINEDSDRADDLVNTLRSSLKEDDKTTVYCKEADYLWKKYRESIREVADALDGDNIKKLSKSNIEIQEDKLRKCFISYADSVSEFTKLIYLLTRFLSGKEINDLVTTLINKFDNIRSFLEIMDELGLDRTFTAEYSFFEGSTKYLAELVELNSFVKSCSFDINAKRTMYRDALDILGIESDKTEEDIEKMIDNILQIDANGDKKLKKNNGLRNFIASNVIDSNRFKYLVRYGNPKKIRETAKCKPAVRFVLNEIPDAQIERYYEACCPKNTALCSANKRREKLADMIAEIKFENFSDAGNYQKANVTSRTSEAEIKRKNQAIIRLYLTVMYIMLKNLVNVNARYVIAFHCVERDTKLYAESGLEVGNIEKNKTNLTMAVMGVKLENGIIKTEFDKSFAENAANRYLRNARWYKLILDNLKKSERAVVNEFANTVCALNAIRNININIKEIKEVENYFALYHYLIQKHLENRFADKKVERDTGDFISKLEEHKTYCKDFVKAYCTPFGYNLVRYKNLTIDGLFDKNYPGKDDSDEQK
- experiment summary: crRNA (strand 1, pre-loaded); Mg2+; 40 mM Tris-HCl pH 7.5, 150 mM NaCl, 6 mM MgCl2, 1 mM DTT, 0.1% Tween-20, 0.2 mg/ml BSA; 25 C; 10 min per concentration, then washed
- run conditions: tags: His6-TwinStrep-SUMO cleaved; N-terminal SNAP kept (SNAP-Surface 488); label: 3' end held by stalled T7 RNA polymerase
// scale note: pKd = -log10(conc_M); give the bare number

Lookup result for target 1 MT 5'PFS GGC 3'PFS ACC (mixed) RNA 1: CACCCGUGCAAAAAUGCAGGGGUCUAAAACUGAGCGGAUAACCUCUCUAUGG RNA 2: GGGAAUGGAUCCACAUCUACGAAUUCGGCCCAUAGAGAGGUUAUCCGCUCAACCAGAUCGGAAGAGCACACGU ; measured pKd: 7.61

Lookup result for target 1 insG 3' of 22,insG 3' of 16 (mixed) RNA 1: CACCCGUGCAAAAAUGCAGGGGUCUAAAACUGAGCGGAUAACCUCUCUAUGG RNA 2: GGGAAUGGAUCCACAUCUACGAAUUCGUACGCAUAGAGGAGGUUAUCCGCUCACCGAGAUCGGAAGAGCACACGU ; measured pKd: 7.24

Lookup result for target 3 C1G,C6U (mixed) RNA 1: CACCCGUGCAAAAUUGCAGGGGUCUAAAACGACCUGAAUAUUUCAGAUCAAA RNA 2: GGGAAUGGAUCCACAUCUACGAAUUCGUUUUUGAUCUGAAAUAUUUAGGUGUGCAGAUCGGAAGAGCACACGU ; measured pKd: 7.65

Lookup result for target 2 MT 5'PFS GCG 3'PFS UCG (mixed) RNA 1: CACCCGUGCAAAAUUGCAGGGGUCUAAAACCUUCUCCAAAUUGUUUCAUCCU RNA 2: GGGAAUGGAUCCACAUCUACGAAUUCGCGAGGAUGAAACAAUUUGGAGAAGUCGAGAUCGGAAGAGCACACGU ; measured pKd: 7.70
